tested on: EBC-1 cell; assay: Test III: growth inhibition of non-small cell carcinoma EBC-1 cell (SRB); assay type: cell-based; details: Homo sapiens, EBC-1, 72 h, read-out: Cell proliferation inhibition rate at 1 μM (%)
Some compounds, each annotated with its measured inhibition at 1 µM.
endpoint.name: inhibition at 1 µM (%)

smiles_data=CC(C)C(=O)Oc1ccc2ncc(S(=O)(=O)n3ncc4ncc(-c5cnn(C)c5)cc43)n2c1 endpoint_name="inhibition at 1 µM" numeric_result=87
smiles_data=Cn1cc(-c2ccc3ncc(S(=O)(=O)n4ncc5ncc(-c6cn[nH]c6)cc54)n3c2)cn1 endpoint_name="inhibition at 1 µM" numeric_result=85.7
smiles_data=CC(C)N1CCC(n2cc(-c3cnc4cnn(S(=O)(=O)c5cnc6ccc(-c7cnn(C)c7)cn56)c4c3)cn2)CC1 endpoint_name="inhibition at 1 µM" numeric_result=92.8
smiles_data=Cn1cc(-c2ccc3ncc(S(=O)(=O)n4ncc5ncc(C6=CCNCC6)cc54)n3c2)cn1 endpoint_name="inhibition at 1 µM" numeric_result=91.6
smiles_data=Cn1cc(-c2ccc3ncc(S(=O)(=O)n4ncc5ncc(-c6cnn(C7CCN(C(=O)OC(C)(C)C)CC7)c6)cc54)n3c2)cn1 endpoint_name="inhibition at 1 µM" numeric_result=92.7
smiles_data=CN1CCN(C(=O)c2ccc(-c3cnc4cnn(S(=O)(=O)c5cnc6ccc(-c7cnn(C)c7)cn56)c4c3)cc2)CC1 endpoint_name="inhibition at 1 µM" numeric_result=92.6

###

Some molecules, each annotated with its measured inhibition at 1 µM.
biological target: c-Met kinase domain recombinant protein (Homo sapiens); construct: 50 μL diluted solution of c-Met kinase domain recombinant protein in reaction buffer was added to initiate the reaction; assay: biochemical; details: read-out: Average inhibition rate at 1 μM (%)
Sequence (P08581 1078-1345 limits assumed): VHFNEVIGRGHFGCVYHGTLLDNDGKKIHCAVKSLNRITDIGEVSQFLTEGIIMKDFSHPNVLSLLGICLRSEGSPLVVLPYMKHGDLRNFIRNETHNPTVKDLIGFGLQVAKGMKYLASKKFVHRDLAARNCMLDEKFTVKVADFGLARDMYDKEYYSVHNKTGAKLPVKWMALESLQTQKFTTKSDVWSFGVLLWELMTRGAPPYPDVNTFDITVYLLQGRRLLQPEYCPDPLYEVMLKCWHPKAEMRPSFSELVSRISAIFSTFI
endpoint.name: inhibition at 1 µM (%)

molecule="CC(C)(C)OC(=O)N1CCC(n2cc(-c3cnc4cnn(S(=O)(=O)c5cnc6ccc(-c7cnn(C8CCN(C(=O)OC(C)(C)C)CC8)c7)cn56)c4c3)cn2)CC1 [Example 68]" study_system="c-Met kinase domain recombinant protein (Homo sapiens)" measure_unit=% numeric_result=55.8
molecule="Cn1cc(-c2cnc3cnn(S(=O)(=O)c4cnc5ccc(C(F)(F)F)cn45)c3c2)cn1 [Example 26]" study_system="c-Met kinase domain recombinant protein (Homo sapiens)" measure_unit=% numeric_result=63.8
molecule="O=S(=O)(c1cnc2ccccn12)n1ncc2ncc(-c3ccc(CN4CCOCC4)cc3)cc21 [Example 38]" study_system="c-Met kinase domain recombinant protein (Homo sapiens)" measure_unit=% numeric_result=63.9
molecule="Cn1cc(-c2cnc3cnn(S(=O)(=O)c4cnc5ccc(-c6ccc(F)cc6F)cn45)c3c2)cn1 [Example 87]" study_system="c-Met kinase domain recombinant protein (Homo sapiens)" measure_unit=% numeric_result=72.7
molecule="O=S(=O)(c1cnc2ccc(-c3cn[nH]c3)cn12)n1ncc2ncc(-c3cn[nH]c3)cc21 [Example 104]" study_system="c-Met kinase domain recombinant protein (Homo sapiens)" measure_unit=% numeric_result=100
molecule="O=S(=O)(c1c[nH]c2ncc(-c3cccc(Cl)c3)cc12)n1ncc2cccnc21 [Example 109]" study_system="c-Met kinase domain recombinant protein (Homo sapiens)" measure_unit=% numeric_result=40
molecule="Cn1cc(-c2ccc3ncc(S(=O)(=O)n4ncc5ncc(-c6ccccc6)cc54)n3c2)cn1 [Example 144]" study_system="c-Met kinase domain recombinant protein (Homo sapiens)" measure_unit=% numeric_result=93.1
molecule="COc1ccc2ncc(S(=O)(=O)n3ncc4ncc(-c5cncc6ccccc56)cc43)n2c1 [Example 122]" study_system="c-Met kinase domain recombinant protein (Homo sapiens)" measure_unit=% numeric_result=100
molecule="CC(C)(C)OC(=O)N1CCC(n2cc(-c3cnc4cnn(S(=O)(=O)c5cnc6ncccn56)c4c3)cn2)CC1 [Example 52]" study_system="c-Met kinase domain recombinant protein (Homo sapiens)" measure_unit=% numeric_result=50.3
molecule="O=S(=O)(c1cnc2ccccn12)n1ncc2ncc(-c3cnn(C4CCNCC4)c3)cc21 [Example 45]" study_system="c-Met kinase domain recombinant protein (Homo sapiens)" measure_unit=% numeric_result=76.5
molecule="O=S(=O)(c1cnc2ccccn12)n1ncc2ncc(-c3ccc(N4CCOCC4)cc3)cc21 [Example 39]" study_system="c-Met kinase domain recombinant protein (Homo sapiens)" measure_unit=% numeric_result=65
molecule="CN(C)c1ccc(-c2ccc3ncc(S(=O)(=O)n4ncc5ncc(-c6cnn(C)c6)cc54)n3c2)cc1 [Example 85]" study_system="c-Met kinase domain recombinant protein (Homo sapiens)" measure_unit=% numeric_result=30.1
molecule="CC(C)(C)OC(=O)N1CCC(n2cc(-c3cnc4cnn(S(=O)(=O)c5cnn6cccnc56)c4c3)cn2)CC1 [Example 46]" study_system="c-Met kinase domain recombinant protein (Homo sapiens)" measure_unit=% numeric_result=65
molecule="Cn1cc(-c2cnc3cnn(S(=O)(=O)c4cnc5ccc(-c6ccc(C(F)(F)F)cc6)cn45)c3c2)cn1 [Example 77]" study_system="c-Met kinase domain recombinant protein (Homo sapiens)" measure_unit=% numeric_result=64.8
molecule="Cn1cc(-c2cnc3cnn(S(=O)(=O)c4cnc5ccc(-c6ccc(F)nc6)cn45)c3c2)cn1 [Example 99]" study_system="c-Met kinase domain recombinant protein (Homo sapiens)" measure_unit=% numeric_result=66.2

Each recorded value in this set is attributed to patent US9988381B2.
